Please respond with reported melting point for every item in the list.

// query Which melting point value is on record for COc1ccc(CC(=O)NC(NC(=NC#N)Nc2cc(C)ccc2C)C(C)(C)C)cc1OC (centres unmarked) [Example 21] ?
// result 93 to 94 °C

// query Likewise for CCSc1ccc(CC(=O)NC(NC(=NC#N)Nc2cccc3ncccc23)C(C)(C)C)cc1 (centres unmarked) [Example 37] ?
// result 189 to 190 °C

// query Next compound: COc1ccc(CC(=O)NC(NC(=NC#N)Nc2cc(F)ccc2F)C(C)(C)C)cc1OC (centres unmarked) [Example 19]
// result 190 to 191 °C

// query How about this compound: Cc1ncccc1NC(=NC#N)NC(NC(=O)Cc1ccc(Cl)cc1)C(C)(C)C (centres unmarked) [Example 2]
// result 180 to 181 °C

// query And then CC(C)(C)C(NC(=O)CCCc1cccnc1)NC(=NC#N)Nc1cccc2ncccc12 (centres unmarked) [Example 42] , what is it?
// result 181 to 182 °C

// query Follow-up item: COc1ccc(CC(=O)NC(NC(=NC#N)Nc2c(F)cc(F)cc2F)C(C)(C)C)cc1OC (centres unmarked) [Example 22]
// result 170 to 171 °C

// query Same thing, different compound: CC(C)(C)C(NC(=O)Cc1ccc(C#N)cc1)NC(=NC#N)Nc1cccc2ncccc12 (centres unmarked) [Example 41]
// result 194.5 to 195.5 °C

// query // same read-out, input: COc1ccc(CC(=O)NC(NC(=NC#N)Nc2cccnc2OC)C(C)(Cl)Cl)cc1OC (centres unmarked) [Example 54]
// result 188 to 190 °C

----------
Kindly state melting point for each of the entries shown.

// query So what does the record say about melting point for CC(C)(C)C(NC(=O)Cc1ccc2ccccc2c1)NC(=NC#N)Nc1cccc2ncccc12 (stereo not drawn) [Example 36] ?
// result 200 to 201 °C

// query Param item: Cc1ccc2c(NC(=NC#N)NC(NC(=O)Cc3ccc(Cl)cc3)C(C)(C)C)cccc2n1 (stereo not drawn) [Example 44]
// result 198 to 199 °C

// query Ok, now Cc1ncccc1NC(=NC#N)NC(NC(=O)Cc1ccc(F)cc1)C(C)(C)C (stereo not drawn) [Example 6]
// result 166 to 167 °C

// query Entry COc1ccc(CC(=O)NC(NC(=NC#N)Nc2cccnc2OC)C(C)(C)C)cc1OC (stereo not drawn) [Example 24] please
// result 146 to 147 °C

// query How about COc1ccc(CC(=O)NC(NC(=NC#N)Nc2ccccc2Cl)C(C)(C)C)cc1OC (stereo not drawn) [Example 20] ?
// result 135 to 136 °C

// query Try the compound Cc1ccccc1NC(=NC#N)NC(NC(=O)Cc1ccc2c(c1)OCO2)C(C)(C)C (stereo not drawn) [Example 15]
// result 152 to 153 °C

From: patent US20050171195A1
